- Assayed system: Human immunodeficiency virus type 1 protease (Human immunodeficiency virus 1, UniProt Q72874)
Reported property: pKi
API: returns pKi as number; meaning -log10 of concentration in mol/L.

# input Param item = CCC(C)[C@@H](NC(=O)[C@@H](NC(=O)CCCCCCCCCCCCCCC(=O)N[C@@H](Cc1ccc(F)c(F)c1)C(=O)N[C@@H](Cc1ccccc1)C(=O)O)C(C)O)C(=O)NC(CO)C(N)=O (stereo not given in full) ; retrieve measured pKi.
# output 6.97

# input Param item = CC[C@H](C)[C@@H](NC(=O)[C@H]([C@H](C)O)N(C)C(=O)CCCCCCCCCCCCCCC(=O)N[C@H](CCc1ccccc1)C(=O)N[C@@H](Cc1ccccc1)C(=O)O)C(=O)NC(CO)C(N)=O (stereo not given in full) ; retrieve measured pKi.
# output 6.80

# input Param item = CC[C@H](C)[C@@H](NC(=O)[C@@H](NC(=O)CCCCCCCCCCCCCCC(=O)N[C@H](CC(=O)N[C@@H](Cc1ccccc1)C(=O)O)C(N)=O)C(C)O)C(=O)N[C@@](C)(C(N)=O)c1cccc2ccccc12 (stereo not given in full) ; retrieve measured pKi.
# output 6.90

# input Param item = CC[C@H](C)[C@@H](NC(=O)[C@@H](NC(=O)CCCCCCCCCCCCCCC(=O)N[C@H](CC(=O)N[C@@H](Cc1ccccc1)C(=O)O)C(N)=O)[C@H](C)O)C(=O)N[C@@H](Cc1ccc(C(=O)c2ccccc2)cc1)C(N)=O ; retrieve measured pKi.
# output 6.50

# input Param item = CCC(C)[C@@H](NC(=O)[C@@H](NC(=O)CCCCCCCCCCCCCCC(=O)N[C@@H](Cc1ccc([N+](=O)[O-])cc1)C(=O)N[C@@H](Cc1ccccc1)C(=O)O)C(C)O)C(=O)NC(CO)C(N)=O (stereo not given in full) ; retrieve measured pKi.
# output 6.99
